# target-system: NHERF2_2, Q15599
# Sequence (Q15599 142-238): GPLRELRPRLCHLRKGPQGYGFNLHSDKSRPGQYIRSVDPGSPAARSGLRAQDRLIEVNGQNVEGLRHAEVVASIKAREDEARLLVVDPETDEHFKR
# test: holdup assay
# Set-up: key: below the threshold = too weak to quantify, mostly under pKd 3.1 to 4
# run-conditions: plain residues with an end cap or a label only (N-terminal biotin on a linker: ado-ado)
observable: pKd

1. TKDKVQETQI [LRRC4, Q9HBW1] | 4.11
2. THREVKFTSL [CD46, P15529] | 4.36
3. GQNMTVSVVI [PRLHR, P49683] | 3.69
4. KKTPVSRSHL [SLC22A3, O75751] | 3.92
5. WAKEKQHTRL [SLC17A1, Q14916] | 4.39
6. VISSDDLTEL [CAPN6, Q9Y6Q1] | 4.28
7. LVEEEEPMNL [HDAC7, Q8WUI4] | 3.5
8. TKEIPNCTSV [SORCS3, Q9UPU3] | 3.94
9. EAVTVESTSL [SLC22A11, Q9NSA0] | 5.45
10. ADEMICITTL [CACNA1D, Q01668] | 4.63
11. PDSYHRRDFW [U2AF2, P26368] | 3.79
12. KIEDVEITLV [FCHSD2, O94868] | 3.86
13. HDDYFYHDEL [RCN2, Q14257] | 4.11
14. VYEVPVETKF [SLC26A3, P40879] | 5.04
